Molecular target: α4β7 integrin (Homo sapiens (Human), UniProt P13612+P26010)
Sequence (P26010 20-798, one chain of several): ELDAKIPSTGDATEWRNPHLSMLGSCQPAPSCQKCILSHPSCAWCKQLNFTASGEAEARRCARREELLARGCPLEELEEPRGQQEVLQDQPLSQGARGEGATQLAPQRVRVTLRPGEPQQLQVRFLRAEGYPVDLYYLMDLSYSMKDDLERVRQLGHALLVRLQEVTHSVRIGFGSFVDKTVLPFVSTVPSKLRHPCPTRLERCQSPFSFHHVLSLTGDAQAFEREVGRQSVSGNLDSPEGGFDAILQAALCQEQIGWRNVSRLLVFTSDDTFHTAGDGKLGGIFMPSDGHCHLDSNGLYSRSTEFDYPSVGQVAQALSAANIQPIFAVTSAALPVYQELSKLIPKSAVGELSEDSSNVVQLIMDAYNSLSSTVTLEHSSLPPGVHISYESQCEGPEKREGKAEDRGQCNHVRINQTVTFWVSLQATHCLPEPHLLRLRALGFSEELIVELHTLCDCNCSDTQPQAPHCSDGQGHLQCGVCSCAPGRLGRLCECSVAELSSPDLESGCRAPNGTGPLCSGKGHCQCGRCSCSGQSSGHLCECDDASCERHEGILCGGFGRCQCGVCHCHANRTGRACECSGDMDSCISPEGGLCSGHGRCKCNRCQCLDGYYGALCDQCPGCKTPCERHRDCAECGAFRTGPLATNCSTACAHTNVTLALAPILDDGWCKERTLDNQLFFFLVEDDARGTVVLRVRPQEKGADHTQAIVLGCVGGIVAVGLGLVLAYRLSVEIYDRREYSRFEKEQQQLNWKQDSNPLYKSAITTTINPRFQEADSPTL
Test: Integrin Adhesion Assay: Protocol 4 (MAdCAM-coated plate, RPMI-8866 cells with stable LOF mutation of the ITGB1 gene)
Format: cell-based
Conditions: Protocol 4; RPMI-8866 cells with LOF mutation of ITGB1, MAdCAM; read-out: Mean IC50 α4β7 KO
metric: IC50

molecule	dataValue
COc1ccc(CN2CCN(CC(C)C)CC2)c(OC)c1-c1cccc2c(C[C@H](NC(=O)C3(C(F)(F)F)CCN(CC(F)(F)F)CC3)C(=O)O)cccc12	< 10 nM
COc1cc(CN2CCCC2)cc(OC)c1-c1cccc2c(C[C@H](NC(=O)C3(C(F)(F)F)CCN(CC(F)(F)F)CC3)C(=O)O)cccc12	< 10 nM
COc1ccc(CN2CC3C(C2)C3(C)C)c(OC)c1-c1cccc2c(C[C@H](NC(=O)C3(C(F)(F)F)CCN(CC(F)(F)F)CC3)C(=O)O)cccc12 (stereo partly drawn)	< 10 nM
O=C(O)[C@H](Cc1cccc2c(-c3c(CN4CCCCC4)ccc4ccncc34)cccc12)NC(=O)C1(C(F)(F)F)CCN(CC(F)(F)F)CC1	< 10 nM
O=C(O)[C@H](Cc1cccc2c(-c3cccc4c3OCCO4)cccc12)NC(=O)C1(C(F)(F)F)CCN(CC(F)(F)F)CC1	10 to 100 nM
COc1ccc(CN2CCC(c3ccncc3)CC2)c(OC)c1-c1cccc2c(C[C@H](NC(=O)C3(C(F)(F)F)CCN(CC(F)(F)F)CC3)C(=O)O)cccc12	< 10 nM

---

Molecular target: α4β1 integrin (Homo sapiens (Human), UniProt P05556+P13612)
Sequence (P13612 34-1032): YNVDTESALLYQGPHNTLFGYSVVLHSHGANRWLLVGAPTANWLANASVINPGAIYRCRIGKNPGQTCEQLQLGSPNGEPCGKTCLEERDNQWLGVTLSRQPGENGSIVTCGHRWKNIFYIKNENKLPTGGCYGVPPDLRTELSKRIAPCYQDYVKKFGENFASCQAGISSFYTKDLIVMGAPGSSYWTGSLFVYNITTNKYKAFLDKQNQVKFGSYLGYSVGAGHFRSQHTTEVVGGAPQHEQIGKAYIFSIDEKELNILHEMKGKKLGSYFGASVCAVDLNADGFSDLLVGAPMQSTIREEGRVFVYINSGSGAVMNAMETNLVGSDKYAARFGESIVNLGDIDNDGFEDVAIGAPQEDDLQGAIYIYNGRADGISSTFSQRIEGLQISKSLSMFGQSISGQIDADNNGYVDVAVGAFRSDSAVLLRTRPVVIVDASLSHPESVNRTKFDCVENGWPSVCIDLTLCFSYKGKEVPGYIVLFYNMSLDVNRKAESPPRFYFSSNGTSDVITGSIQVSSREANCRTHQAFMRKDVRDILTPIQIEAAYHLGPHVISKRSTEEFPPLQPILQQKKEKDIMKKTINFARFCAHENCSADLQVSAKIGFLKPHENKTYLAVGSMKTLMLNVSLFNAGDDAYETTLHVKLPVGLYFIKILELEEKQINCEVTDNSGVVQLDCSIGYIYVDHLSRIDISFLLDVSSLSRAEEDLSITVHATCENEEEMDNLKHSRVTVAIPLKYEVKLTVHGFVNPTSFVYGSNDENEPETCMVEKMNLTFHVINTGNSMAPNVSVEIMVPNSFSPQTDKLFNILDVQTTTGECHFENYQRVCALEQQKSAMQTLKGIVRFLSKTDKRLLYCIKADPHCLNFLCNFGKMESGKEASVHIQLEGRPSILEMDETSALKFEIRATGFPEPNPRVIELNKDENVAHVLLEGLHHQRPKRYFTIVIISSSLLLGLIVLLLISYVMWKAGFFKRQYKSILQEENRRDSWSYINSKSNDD
Sequence (P05556 21-798): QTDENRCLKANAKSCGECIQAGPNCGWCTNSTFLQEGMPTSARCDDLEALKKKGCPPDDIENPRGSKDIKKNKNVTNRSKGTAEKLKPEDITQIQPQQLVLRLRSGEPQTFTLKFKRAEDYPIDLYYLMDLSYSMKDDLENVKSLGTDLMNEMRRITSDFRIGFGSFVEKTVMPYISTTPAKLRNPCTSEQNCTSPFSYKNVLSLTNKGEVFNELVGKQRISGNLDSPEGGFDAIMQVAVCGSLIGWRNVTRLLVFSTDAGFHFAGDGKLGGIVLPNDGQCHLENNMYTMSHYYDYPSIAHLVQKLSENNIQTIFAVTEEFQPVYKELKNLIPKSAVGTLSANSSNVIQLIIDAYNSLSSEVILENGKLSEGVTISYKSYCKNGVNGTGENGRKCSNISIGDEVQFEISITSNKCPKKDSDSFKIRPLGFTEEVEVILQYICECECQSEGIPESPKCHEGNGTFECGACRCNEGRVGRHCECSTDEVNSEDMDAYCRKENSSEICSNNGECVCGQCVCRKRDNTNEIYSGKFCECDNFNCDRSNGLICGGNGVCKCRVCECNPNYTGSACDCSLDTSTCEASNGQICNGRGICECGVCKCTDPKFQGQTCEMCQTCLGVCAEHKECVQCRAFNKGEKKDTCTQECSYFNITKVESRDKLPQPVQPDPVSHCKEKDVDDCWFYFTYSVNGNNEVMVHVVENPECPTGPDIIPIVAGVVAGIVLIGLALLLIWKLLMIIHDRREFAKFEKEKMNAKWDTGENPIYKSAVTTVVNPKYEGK
Assay: Integrin Adhesion Assay: Protocol 5 (VCAM-coated plate, RPMI-8866 cells with stable LOF mutation of the ITGB7 gene)
Assay type: cell-based
Conditions: Protocol 5; RPMI-8866 cells with LOF mutation of ITGB7, VCAM; read-out: Mean IC50 α4β1 KO
pIC50: −log10 of the molar value.
metric: pIC50

> print(dat)
                                   molecule     datavalue
1  O=C(O)[C@H](Cc1cccc2c(-c3ncc(CN4CCC[C@H](F)C4)cc3C3CC3)cccc12)NC(=O)C1(C(F)(F)F)CCN(CC(F)(F)F)CC1 [Compound 950]        < 6.00
2  COc1c(-c2cccc3c(C[C@H](NC(=O)C4(C(F)(F)F)CCN(CC(F)F)CC4)C(=O)O)cccc23)cc(CN2CCCCC2)cc1C(F)(F)F [Compound 764]        < 6.00
3  CC[C@@H]1CCCCN1Cc1cnc(-c2cccc3c(C[C@H](NC(=O)C4(C(F)(F)F)CCN(CC(F)(F)F)CC4)C(=O)O)cccc23)c2ccccc12 [Compound 931]  6.00 to 7.00

---

Recorded pIC50 by entry
Biological target: α4β7 integrin (Homo sapiens (Human), UniProt P13612+P26010)
Test: Integrin Adhesion Assay: Protocol 4 (MAdCAM-coated plate, RPMI-8866 cells with stable LOF mutation of the ITGB1 gene)
Assay type: cell-based
Conditions: RPMI-8866 cells with stable LOF mutation of the ITGB1 gene; read-out: Mean IC50 α4β7 KO^a
pIC50: −log10 of the molar value.

compound	pIC50
O=C(O)[C@H](Cc1cccc2c(-c3nccc4c(CN5CCCCC5)cccc34)cccc12)NC(=O)C1(C(F)(F)F)CCN([C@@H]2COCC2(F)F)CC1	> 8.00
CN(C)Cc1cccc2c(-c3cccc4c(C[C@H](NC(=O)c5c(F)cc(N6CCOC[C@@H]6C(F)(F)F)cc5CN5CCCC5)C(=O)O)cccc34)nccc12	> 8.00
COC(=O)[C@H](Cc1cccc2c(-c3nccc4cc(CCN(C)C)ccc34)cccc12)NC(=O)OC(C)(C)C	> 8.00
COc1cccc(CN2CCCCC2)c1-c1cccc2c(C[C@H](NC(=O)c3c(F)cccc3Cl)C(=O)O)cccc12	> 8.00
Cn1c(=O)c(-c2cccc3c(C[C@H](NC(=O)C4(C(F)(F)F)CCN([C@H]5CCC(F)(F)C5)CC4)C(=O)O)cccc23)c(C(F)(F)F)c2ccccc21 (single isomer, unassigned)	7.00 to 8.00
COc1ccc(CN2CC3CCC(C2)O3)c(OC)c1-c1cccc2c(C[C@H](NC(=O)c3c(C)cccc3F)C(=O)O)cccc12	7.00 to 8.00
